Target: UniProt P06276
Sequence (P06276 29-602): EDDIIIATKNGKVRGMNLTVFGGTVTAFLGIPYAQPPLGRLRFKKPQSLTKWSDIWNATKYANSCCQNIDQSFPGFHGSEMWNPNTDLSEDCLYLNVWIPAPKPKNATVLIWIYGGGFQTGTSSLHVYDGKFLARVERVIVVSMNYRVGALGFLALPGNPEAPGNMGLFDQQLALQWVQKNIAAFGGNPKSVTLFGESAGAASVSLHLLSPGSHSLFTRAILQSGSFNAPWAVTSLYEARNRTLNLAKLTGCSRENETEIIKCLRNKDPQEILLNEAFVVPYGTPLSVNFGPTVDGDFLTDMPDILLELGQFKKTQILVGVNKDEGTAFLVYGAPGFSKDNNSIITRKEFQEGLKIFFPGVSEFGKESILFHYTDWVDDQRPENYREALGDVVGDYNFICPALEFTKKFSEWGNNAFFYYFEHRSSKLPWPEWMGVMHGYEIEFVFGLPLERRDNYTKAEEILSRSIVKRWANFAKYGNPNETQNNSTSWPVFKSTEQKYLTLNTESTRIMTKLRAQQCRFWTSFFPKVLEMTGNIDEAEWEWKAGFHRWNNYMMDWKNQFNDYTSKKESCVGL
Assay: biochemical
Format: biochemical
Conditions: hBChE from human serum; means of at least three determinations; read-out: IC50 hBChE
pIC50: −log10 of the molar value.

| Molecule | pIC50 |
| --- | --- |
| CCOc1ccc(Cc2nc3cc(C(=O)N(CC)CC)ccc3n2CCCCCCNc2c3c(nc4ccccc24)CCCC3)cc1 [compound 3e] | 8.72 |
| CCOc1ccc(Cc2nc3cc(C(=O)N(CC)CCCCNc4c5c(nc6ccccc46)CCCC5)ccc3n2CCC(C)C)cc1 [compound 5] | 7.22 |
| CCOc1ccc(Cc2nc3cc(C(=O)NCCSSCCNc4c5c(nc6ccccc46)CCCC5)ccc3n2CCC(C)C)cc1 [compound 8] | 7.11 |

* * *

Molecular target: hCB1R (Homo sapiens, UniProt P21554)
Construct: expressed in transfected cells; host or cells: CHO cells stably expressing hCB1R
Sequence (P21554 whole entry): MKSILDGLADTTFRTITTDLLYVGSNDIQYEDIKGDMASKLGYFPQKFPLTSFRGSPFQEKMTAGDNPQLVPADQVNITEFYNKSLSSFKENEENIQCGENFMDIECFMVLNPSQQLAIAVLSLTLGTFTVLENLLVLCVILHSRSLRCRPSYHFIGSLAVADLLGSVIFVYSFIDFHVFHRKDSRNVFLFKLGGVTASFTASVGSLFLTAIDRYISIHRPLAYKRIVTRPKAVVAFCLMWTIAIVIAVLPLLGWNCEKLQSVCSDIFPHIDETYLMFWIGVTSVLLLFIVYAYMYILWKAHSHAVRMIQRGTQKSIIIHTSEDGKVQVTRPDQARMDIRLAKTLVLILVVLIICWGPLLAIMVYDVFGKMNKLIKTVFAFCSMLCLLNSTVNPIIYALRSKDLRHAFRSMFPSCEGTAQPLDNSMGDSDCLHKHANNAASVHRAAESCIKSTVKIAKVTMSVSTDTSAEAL
Type: binding
Experimental endpoint: [^3H]CP 55,940 displ. @10 µM hCB1R (%)

| Molecule | Experimental endpoint | Value unit | Readout number |
| --- | --- | --- | --- |
| CCOc1ccc(Cc2nc3cc(C(=O)N(CC)CC)ccc3n2CCCCCNc2c3c(nc4ccccc24)CCCC3)cc1 [3d] | [^3H]CP 55,940 displ. @10 µM hCB1R | % | 21 |
| CCOc1ccc(Cc2nc3cc(C(=O)NCCOCCOCCNc4c5c(nc6ccccc46)CCCC5)ccc3n2CCC(C)C)cc1 [compound 7] | [^3H]CP 55,940 displ. @10 µM hCB1R | % | 32 |
| CCOc1ccc(Cc2nc3cc(C(=O)NCCCCNc4c5c(nc6ccccc46)CCCC5)ccc3n2CCC(C)C)cc1 [4c] | [^3H]CP 55,940 displ. @10 µM hCB1R | % | 9 |
| CCOc1ccc(Cc2nc3cc(C(=O)NCCCNc4c5c(nc6ccccc46)CCCC5)ccc3n2CCC(C)C)cc1 [4b] | [^3H]CP 55,940 displ. @10 µM hCB1R | % | 20 |
| CCOc1ccc(Cc2nc3cc(C(=O)NCCCCCCNc4c5c(nc6ccccc46)CCCC5)ccc3n2CCC(C)C)cc1 [4e] | [^3H]CP 55,940 displ. @10 µM hCB1R | % | 54 |
| CCOc1ccc(Cc2nc3cc(C(=O)N(CC)CC)ccc3n2CCCCNc2c3c(nc4ccccc24)CCCC3)cc1 [3c] | [^3H]CP 55,940 displ. @10 µM hCB1R | % | 32 |
| CCOc1ccc(Cc2nc3cc(C(=O)N(CC)CCCCNc4c5c(nc6ccccc46)CCCC5)ccc3n2CCC(C)C)cc1 [compound 5] | [^3H]CP 55,940 displ. @10 µM hCB1R | % | 36 |

* * *

Target: hAChE (Homo sapiens, UniProt P22303)
Sequence (P22303 32-614): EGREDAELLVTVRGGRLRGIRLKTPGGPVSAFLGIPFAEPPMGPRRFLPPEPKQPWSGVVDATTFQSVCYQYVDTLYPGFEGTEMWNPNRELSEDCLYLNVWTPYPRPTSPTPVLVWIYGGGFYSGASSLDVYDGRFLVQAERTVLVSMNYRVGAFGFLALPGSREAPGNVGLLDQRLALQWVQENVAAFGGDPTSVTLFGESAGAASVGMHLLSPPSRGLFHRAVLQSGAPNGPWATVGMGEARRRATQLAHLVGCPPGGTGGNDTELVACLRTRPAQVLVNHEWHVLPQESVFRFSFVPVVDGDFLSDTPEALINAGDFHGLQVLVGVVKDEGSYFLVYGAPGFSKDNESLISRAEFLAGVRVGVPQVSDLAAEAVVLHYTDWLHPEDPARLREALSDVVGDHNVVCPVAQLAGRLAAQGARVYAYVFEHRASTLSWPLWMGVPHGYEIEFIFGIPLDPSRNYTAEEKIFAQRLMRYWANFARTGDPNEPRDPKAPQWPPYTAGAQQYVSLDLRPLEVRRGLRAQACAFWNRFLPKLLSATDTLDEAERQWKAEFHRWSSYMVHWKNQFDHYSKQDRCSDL
Assay: biochemical
Format: biochemical
Conditions: pIC50 ± SD AChE (hAChE)
pIC50: −log10 of the molar value.
Experimental endpoint: pIC50

| Compound | Experimental endpoint | Readout number |
| --- | --- | --- |
| CCOc1ccc(Cc2nc3cc(C(=O)NCCOCCOCCNc4c5c(nc6ccccc46)CCCC5)ccc3n2CCC(C)C)cc1 [compound 7] | pIC50 | 5.85 |

* * *

# log10 Ki values compiled below
Target: hCB2R (Homo sapiens)
Construct: expressed in transfected cells; host or cells: HEK cells stably expressing hCB2R
Sequence (P34972 whole entry): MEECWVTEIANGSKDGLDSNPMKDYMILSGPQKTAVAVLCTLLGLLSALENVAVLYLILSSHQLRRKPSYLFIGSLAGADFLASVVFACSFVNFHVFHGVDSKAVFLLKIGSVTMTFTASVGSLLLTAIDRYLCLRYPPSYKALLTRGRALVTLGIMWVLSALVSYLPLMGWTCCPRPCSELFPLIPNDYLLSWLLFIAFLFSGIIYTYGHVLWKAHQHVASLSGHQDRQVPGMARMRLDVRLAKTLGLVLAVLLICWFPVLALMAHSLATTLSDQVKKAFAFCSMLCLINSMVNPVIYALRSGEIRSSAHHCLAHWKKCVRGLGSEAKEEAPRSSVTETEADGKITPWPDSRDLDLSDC
Assay: biochemical
Type: binding
Experimental endpoint: log10 Ki (log10 of the value in µM)

| Compound | log10 Ki |
| --- | --- |
| CCOc1ccc(Cc2nc3cc(C(=O)N(CC)CC)ccc3n2CCCCCNc2c3c(nc4ccccc24)CCCC3)cc1 [3d] | 0.90 |
| CCOc1ccc(Cc2nc3cc(C(=O)NCCCCCCNc4c5c(nc6ccccc46)CCCC5)ccc3n2CCC(C)C)cc1 [4e] | 1.00 |
| CCOc1ccc(Cc2nc3cc(C(=O)N(CC)CC)ccc3n2CCCCNc2c3c(nc4ccccc24)CCCC3)cc1 [3c] | 1.40 |
| CCOc1ccc(Cc2nc3cc(C(=O)NCCSSCCNc4c5c(nc6ccccc46)CCCC5)ccc3n2CCC(C)C)cc1 [compound 8] | 0.80 |
| CCOc1ccc(Cc2nc3cc(C(=O)N(CC)CCCCNc4c5c(nc6ccccc46)CCCC5)ccc3n2CCC(C)C)cc1 [compound 5] | 0.50 |
| CCOc1ccc(Cc2nc3cc(C(=O)NCCOCCOCCNc4c5c(nc6ccccc46)CCCC5)ccc3n2CCC(C)C)cc1 [compound 7] | 1.20 |
| CCOc1ccc(Cc2nc3cc(C(=O)NCCCCNc4c5c(nc6ccccc46)CCCC5)ccc3n2CCC(C)C)cc1 [4c] | 0.40 |
| CCOc1ccc(Cc2nc3cc(C(=O)N(CC)CC)ccc3n2CCOCCOCCNc2c3c(nc4ccccc24)CCCC3)cc1 [compound 6] | 1.50 |
